- SYSTEM_TESTED: Ephrin type-A receptor 2 (Homo sapiens);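 also: reported values are mean percent inhibition of EPHA2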
- ASSAY_SETUP: at 0.1 µM
For each record, write down the corresponding inhibition.
State the value with its unit after it.

Answered examples (4):
COMPOUND	inhibition
CS(=O)(=O)CCNCc1ccc(-c2ccc3ncnc(Nc4ccc(OCc5cccc(C(F)(F)F)c5)cc4)c3c2)o1	0.34%
COC(=O)Nc1nc2ccc(Oc3ccc(NC(=O)Nc4cc(C(F)(F)F)ccc4F)cc3)cc2s1	63.5%
O=C1Nc2ccccc2/C1=C1\CCc2cc(O)ccc21	2.66%
FC(F)(F)CNc1nccc(-c2cnn3ncccc23)n1	0.5%

Next item in the queue.
Form: compound = CC1=C(C(=O)Nc2ccc3[nH]nc(C)c3c2)C(c2ccc(C(F)(F)F)cc2)CC(=O)N1 (stereo not given) ; inhibition = 2.9%

---

- SYSTEM_TESTED: Tyrosine-protein kinase Mer (Homo sapiens) (UniProt Q12866);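 also: values are mean inhibition of human MER kinase, from the GSK PKIS profiling panel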
- Sequence (Q12866 whole entry): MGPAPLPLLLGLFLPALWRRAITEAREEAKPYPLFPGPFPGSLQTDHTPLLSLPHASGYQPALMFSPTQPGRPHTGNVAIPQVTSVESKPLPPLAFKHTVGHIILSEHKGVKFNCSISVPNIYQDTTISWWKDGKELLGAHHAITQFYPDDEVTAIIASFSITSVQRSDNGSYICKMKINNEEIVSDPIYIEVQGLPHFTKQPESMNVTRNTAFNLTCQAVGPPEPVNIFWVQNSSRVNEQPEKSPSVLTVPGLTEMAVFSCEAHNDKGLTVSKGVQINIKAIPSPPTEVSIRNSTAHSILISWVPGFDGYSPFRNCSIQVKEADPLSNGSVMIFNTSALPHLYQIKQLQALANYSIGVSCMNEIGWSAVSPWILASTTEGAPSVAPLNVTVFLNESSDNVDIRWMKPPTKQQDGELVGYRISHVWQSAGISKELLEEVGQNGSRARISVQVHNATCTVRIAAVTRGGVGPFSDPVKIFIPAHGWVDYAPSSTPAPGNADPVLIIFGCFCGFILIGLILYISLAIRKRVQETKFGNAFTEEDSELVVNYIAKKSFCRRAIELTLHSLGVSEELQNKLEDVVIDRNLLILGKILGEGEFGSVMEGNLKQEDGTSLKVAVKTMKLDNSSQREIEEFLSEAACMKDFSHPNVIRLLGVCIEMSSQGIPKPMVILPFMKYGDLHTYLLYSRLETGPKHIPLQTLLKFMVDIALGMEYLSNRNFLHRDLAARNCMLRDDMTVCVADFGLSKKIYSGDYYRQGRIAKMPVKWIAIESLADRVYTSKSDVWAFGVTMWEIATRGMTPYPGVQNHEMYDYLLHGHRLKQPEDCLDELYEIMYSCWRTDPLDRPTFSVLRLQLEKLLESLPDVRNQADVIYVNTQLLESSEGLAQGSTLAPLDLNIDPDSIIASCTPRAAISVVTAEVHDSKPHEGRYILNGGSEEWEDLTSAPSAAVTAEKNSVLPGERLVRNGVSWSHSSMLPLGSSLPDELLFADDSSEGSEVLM
- ASSAY_SETUP: at 1 µM
TEST_READOUT: inhibition (%)
Numbers only, in %.

SMILES_TEXT	OBS_VALUE
O=C1Nc2ccccc2/C1=C1\CCc2cc(O)ccc21	8.7
CCn1c(-c2nonc2N)nc2cncc(C(=O)NCCNC)c21	3.22

Hi there! I need inhibition for each item below, if you can.
1. CCS(=O)(=O)c1ccc(OC)c(Nc2ncc(-c3cccc(C(C)=O)c3)o2)c1
2. Cc1cc(O)cc(C)c1/C=C/c1cncc(C(=O)OC(C)(C)C)c1

1. 2.12
2. 2.87

Hi there! I need inhibition for each item below, if you can.
1. COc1ccc2ncn(-c3cc(O[C@H](C)c4ccccc4C(F)(F)F)c(C(N)=O)s3)c2c1
2. CNC(=O)c1ncccc1Nc1nc(Nc2cc3c(cc2OC)CCCN3C(=O)CN(C)C)nc2[nH]ccc12
3. O=C(O[C@H]1CN[C@H](C#Cc2cc3ncnc(Nc4ccc5c(ccn5Cc5cc(F)ccc5F)c4)c3s2)C1)N1CCOCC1
4. CS(=O)(=O)Nc1ccc(-c2ccc3c(NC(=O)C4CC4)n[nH]c3c2)cc1
5. NC(=O)c1ccc2c(-c3ccnc(NCCCO)n3)c(-c3ccc(F)cc3)nn2c1
6. Fc1cccc(COc2ccc(Nc3ncncc3C#Cc3ccccc3)cc2Cl)c1

1. 2.59
2. 4.5
3. 3.33
4. 3.15
5. 14.2
6. 2.67

---

- SYSTEM_TESTED: Tyrosine-protein kinase Tec (Homo sapiens);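 also: each value is the mean of the inhibition measurements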
- ASSAY_SETUP: at 1 µM
Note to self: values exactly at 3% are 1.0. So inhibition at or above 3% is 1.0, below is 0.0.

SMILES_TEXT	GROUP
COc1ccc(Nc2ncc(-c3ccccc3)o2)cc1OC	1.0
Cc1c2ccc(N(C)c3ccnc(Nc4cccc(S(N)(=O)=O)c4)n3)cc2nn1C	1.0
O=C(O[C@H]1CN[C@H](C#Cc2cc3ncnc(Nc4ccc5c(cnn5Cc5ccccc5)c4)c3s2)C1)N1CCOCC1	0.0
CCN1CCC(C(=O)Nc2n[nH]c3nnc(-c4cccc(F)c4F)cc23)CC1	0.0

Kindly review the next compound as well.
API: above_or_equal(metric=inhibition, cutoff=3%) for item CC(C)c1ccc(-c2cc(-c3c[nH]nc3-c3ccccn3)ccn2)cc1
0.0

---

For each record, write down the corresponding inhibition.
- SYSTEM_TESTED: Protein kinase C theta type (Homo sapiens) (UniProt Q04759);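 also: reported figure is the mean percent inhibition of PKC-theta, from the GSK PKIS screen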
- Sequence (Q04759 whole entry, looked up): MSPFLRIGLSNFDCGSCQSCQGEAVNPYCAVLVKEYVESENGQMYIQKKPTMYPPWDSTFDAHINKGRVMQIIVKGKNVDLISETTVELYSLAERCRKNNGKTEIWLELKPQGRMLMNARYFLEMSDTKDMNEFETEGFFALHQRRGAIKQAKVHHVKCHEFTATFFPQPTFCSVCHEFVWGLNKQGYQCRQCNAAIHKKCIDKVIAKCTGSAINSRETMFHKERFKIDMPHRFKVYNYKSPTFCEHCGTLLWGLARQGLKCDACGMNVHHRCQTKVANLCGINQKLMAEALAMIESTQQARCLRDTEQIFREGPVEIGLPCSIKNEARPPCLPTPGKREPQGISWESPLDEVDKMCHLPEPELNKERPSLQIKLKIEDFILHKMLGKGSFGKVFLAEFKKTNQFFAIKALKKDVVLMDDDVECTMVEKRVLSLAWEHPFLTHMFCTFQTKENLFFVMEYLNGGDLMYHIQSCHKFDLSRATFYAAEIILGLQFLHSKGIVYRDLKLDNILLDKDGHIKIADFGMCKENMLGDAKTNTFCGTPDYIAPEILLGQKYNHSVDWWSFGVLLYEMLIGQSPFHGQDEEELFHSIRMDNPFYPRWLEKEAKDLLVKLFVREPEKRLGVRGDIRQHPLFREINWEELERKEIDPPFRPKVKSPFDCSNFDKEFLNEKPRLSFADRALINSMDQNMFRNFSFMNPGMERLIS
- ASSAY_SETUP: at 0.1 µM
Answers are plain numbers, in %.

Answered examples (5):
COMPOUND	SYSTEM_TESTED	OBS_VALUE
COc1cc(N2CCN(C(C)C)CC2)ccc1Nc1nc(Nc2cccc(F)c2C(=O)O)c2cc[nH]c2n1	Protein kinase C theta type (Homo sapiens) (UniProt Q04759)	2.48
COc1ccccc1-c1cc(/C=C2\C(=O)Nc3ncc(Br)cc32)cc(Br)c1O	Protein kinase C theta type (Homo sapiens) (UniProt Q04759)	1.61
NS(=O)(=O)c1cccc(N/C=C2\C(=O)Nc3ccccc32)c1	Protein kinase C theta type (Homo sapiens) (UniProt Q04759)	2.17
CNC(=O)c1ncccc1Nc1nc(Nc2cc3c(cc2OC)CCCN3C(=O)CN(C)C)nc2[nH]ccc12	Protein kinase C theta type (Homo sapiens) (UniProt Q04759)	1.94
CNC(=O)c1sc(-n2cnc3cc(OC)c(OC)cc32)cc1OCc1ccccc1C(F)(F)F	Protein kinase C theta type (Homo sapiens) (UniProt Q04759)	2.36

Hi there! I need inhibition for each item below, if you can.
1. CNC(=O)c1cncc(/C=C/c2ccccc2C)c1
2. O=C(O[C@H]1CN[C@H](C#Cc2cc3ncnc(Nc4ccc(OCc5cccc(F)c5)c(Cl)c4)c3s2)C1)N1CCOCC1
3. COc1cc2c(cc1Nc1nc(Nc3cccc(F)c3C(N)=O)c3cc[nH]c3n1)N(C(=O)CN1CCN(C(C)C)CC1)CC2
4. Cc1cc(O)cc(C)c1/C=C/c1cncc(C(N)=O)c1
5. CS(=O)(=O)CCNCc1ccc(-c2ccc3ncnc(Nc4ccc(OCc5ccccc5)cc4)c3c2)o1

1: 2.42; 2: 3.84; 3: 2.08; 4: 1.21; 5: 1.49

Hi there! I need inhibition for each item below, if you can.
1. CC1=C(C(=O)Nc2ccc3[nH]nc(C)c3c2)C(c2ccc(C(F)(F)F)cc2)CC(=O)N1 (centres undefined)
2. COC(=O)Nc1nc2ccc(Oc3ccc(NC(=O)Nc4cc(C(F)(F)F)ccc4F)cc3)cc2s1
3. CN(c1ccc(NC(=O)NCCN2CCOCC2)cc1)c1ccnc(Nc2ccc(CS(C)(=O)=O)cc2)n1

1. 2.33
2. -0.27
3. 2.63

---

- SYSTEM_TESTED: Insulin receptor (Homo sapiens);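 also: reported values are averages of replicate inhibition measurements against the insulin receptor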
- ASSAY_SETUP: at 0.1 µM
For each record, write down the corresponding inhibition.
Give bare numbers, in %.

Hi there! I need inhibition for each item below, if you can.
1. CN(c1ccc(NC(=O)NCCN2CCOCC2)cc1)c1ccnc(Nc2ccc(CS(C)(=O)=O)cc2)n1
2. CC(C)c1ccc(-c2cc(-c3c[nH]nc3-c3ccccn3)ccn2)cc1
3. CC1(C)CC(n2cnc(-c3ccc(F)cc3)c2-c2ccnc(N)n2)CC(C)(C)N1

[0.64, -0.15, 4.97]

---

For each record, write down the corresponding inhibition.
- SYSTEM_TESTED: Cyclin-dependent kinase 4 (Homo sapiens) (UniProt P11802)
- Sequence (P11802 whole entry): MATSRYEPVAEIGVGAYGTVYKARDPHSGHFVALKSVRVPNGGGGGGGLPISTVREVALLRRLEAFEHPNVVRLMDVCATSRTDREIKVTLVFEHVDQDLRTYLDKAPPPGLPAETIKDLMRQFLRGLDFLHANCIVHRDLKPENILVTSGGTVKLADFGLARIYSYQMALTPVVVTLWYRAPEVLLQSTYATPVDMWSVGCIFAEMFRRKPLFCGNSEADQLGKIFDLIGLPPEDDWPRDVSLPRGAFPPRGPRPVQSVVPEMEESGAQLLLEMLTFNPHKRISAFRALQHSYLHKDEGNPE
- ASSAY_SETUP: at 0.1 µM
- Description: GSK_PKIS: CDK4/cyclinD mean inhibition at 0.1 uM [Nanosyn]
One number for each entry, in %.

Answered examples (6):
SMILES_TEXT	inhibition (%)
Cn1c(-c2nonc2N)nc2cnccc21	1.95
CS(=O)(=O)CCNCc1ccc(-c2ccc3ncnc(Nc4ccc(OCc5cccc(C(F)(F)F)c5)cc4)c3c2)o1	3.72
Cc1cc(O)cc(C)c1/C=C/c1cncc(C(N)=O)c1	2.84
CNC(=O)c1cncc(/C=C/c2ccccc2C)c1	1.9
N#Cc1ccc2c(-c3ccnc(NC4CC4)n3)c(-c3ccc(F)cc3)nn2c1	-0.21
O=C1Nc2ccccc2/C1=C1\CCc2cc(O)ccc21	3.57

Hi there! I need inhibition for each item below, if you can.
1. CC1(C)CC(n2cnc(-c3ccc(F)cc3)c2-c2ccnc(N)n2)CC(C)(C)N1
2. CCN1CCC(C(=O)Nc2n[nH]c3nnc(-c4cccc(F)c4F)cc23)CC1
3. CCS(=O)(=O)c1ccc(OC)c(Nc2ncc(-c3cccc(F)c3)o2)c1
4. NS(=O)(=O)c1ccc(N/N=C2\C(=O)Nc3cccc(CCc4ccncc4)c32)cc1
5. COc1cc(N2CCN(C(C)C)CC2)ccc1Nc1nc(Nc2cccc3ncccc23)c2cc[nH]c2n1
6. N#Cc1cccc(Nc2ncc(-c3ccccc3)o2)c1

1. 1.99
2. 5.92
3. 2.69
4. 14
5. -0.07
6. 3.86

Hi there! I need inhibition for each item below, if you can.
1. OCCCNc1nccc(-c2c(-c3ccc(F)cc3)nn3cc(C(F)(F)F)ccc23)n1
2. Cc1c2ccc(N(C)c3ccnc(Nc4cccc(S(N)(=O)=O)c4)n3)cc2nn1C
3. CC(C)c1ccc(-c2cc(-c3c[nH]nc3-c3ccccn3)ccn2)cc1
4. Cc1nnc(-c2cccc(-c3ccc(C(=O)NCC4CC4)cc3)c2)o1
5. COc1ccccc1-c1cc(/C=C2\C(=O)Nc3ncc(Br)cc32)cc(Br)c1O
6. CN1CCC(n2cnc(-c3ccc(F)cc3)c2-c2ccnc(NCCO)n2)CC1

1. 0.94
2. -3.55
3. 1.25
4. 1.46
5. 5.08
6. 2.07

Hi there! I need inhibition for each item below, if you can.
1. COC(=O)Nc1nc2ccc(Oc3ccc(NC(=O)Nc4cc(C(F)(F)F)ccc4F)cc3)cc2s1
2. CCS(=O)(=O)c1ccc(OC)c(Nc2ncc(-c3cccc(C(C)=O)c3)o2)c1
3. c1ccc(-c2n[nH]cc2-c2ccnc(-c3ccc(OCCn4ccnc4)cc3)c2)nc1
4. COc1cccc(Nc2nccc(-c3cnn4ncccc34)n2)c1

0.7
2.53
1.86
56.5

---

- SYSTEM_TESTED: Casein kinase I isoform alpha (Homo sapiens) (UniProt P48729);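 also: each value is a mean percent inhibition of the kinase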
- Sequence (P48729 2-337 limits assumed): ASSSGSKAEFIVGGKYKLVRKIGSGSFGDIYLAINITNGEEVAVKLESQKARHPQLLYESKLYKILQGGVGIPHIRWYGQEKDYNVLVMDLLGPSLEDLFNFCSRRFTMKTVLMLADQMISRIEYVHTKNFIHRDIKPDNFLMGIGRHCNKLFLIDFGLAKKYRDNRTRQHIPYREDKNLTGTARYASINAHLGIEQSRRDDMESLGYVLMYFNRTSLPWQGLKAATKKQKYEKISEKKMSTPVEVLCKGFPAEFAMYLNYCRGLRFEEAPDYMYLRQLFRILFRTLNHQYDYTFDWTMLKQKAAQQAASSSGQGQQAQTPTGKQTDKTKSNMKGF
- ASSAY_SETUP: at 1 µM
TEST_READOUT: inhibition (%)
Give bare numbers, in %.

Answered examples (3):
SMILES_TEXT	inhibition, %
COC(=O)Nc1nc2ccc(Oc3ccc(NC(=O)Nc4cc(C(F)(F)F)ccc4F)cc3)cc2s1	3.01
COc1cc(Nc2ncc(-c3ccccc3)o2)cc(OC)c1	3.47
CS(=O)(=O)Nc1ccc(-c2ccc3c(NC(=O)C4CC4)n[nH]c3c2)cc1	3.8

Hi there! I need inhibition for each item below, if you can.
1. CCOc1ccc2c(-c3ccnc(Nc4cc(OC)cc(C(F)(F)F)c4)n3)cnn2n1
2. COC(=O)Nc1nc2cc(Oc3ccc(NC(=O)Nc4ccccc4)cc3)ccc2[nH]1

1: 3.91; 2: 2.7
